Form field: log10 IC50 (one value per entry).
# TESTED ON: human KHK-A (Homo sapiens (Human), UniProt P50053)
# ASSAY REMARKS: KHK Biochemical Assay (IC50), ADP-Glo, KHK-A
# RECORDED CONDITIONS: ADP-Glo; average of at least two separate assays
Log scale reminder: IC50 in µM, then log10 taken.

Examples from the recorded data:
# MOL SMILES, log10 IC50
data = [
    ("C[C@H]1CCN1c1nc2c(c(-c3cccc(C(=O)NCCC(=O)O)c3)n1)CCC2", -0.89),
    ("C[C@H]1CCN1c1nc2c(c(-c3ccc4c(c3)C3(CCC3)CNC4=O)n1)CCC2", -1.60),
    ("C[C@H]1CCN1c1nc2c(c(-c3ccc(CN)cc3)n1)CCC2", -2.38),
    ("c1ccc(-c2nc(C3CCC3)nc3c2CCC3)cc1", -0.03),
]

Next up:
Tell me reported log10 IC50 for C[C@H]1CCN1c1nc2c(c(-c3cn4ccnc4s3)n1)CCC2 , tested with human KHK-A (Homo sapiens (Human), UniProt P50053).
-1.53

###

Form field: pIC50 (one value per entry).
# TESTED ON: human KHK-A (Homo sapiens (Human), UniProt P50053)
# ASSAY REMARKS: KHK Biochemical Assay (IC50), ADP-Glo, KHK-A
# RECORDED CONDITIONS: ADP-Glo; average of at least two separate assays
Lab note: report pIC50 as minus log10 of the concentration in molar units, number only.

# MOL SMILES, pIC50
measured = [
    ("C[C@H]1CCN1c1nc2c(c(-c3nc4ccc(C(N)=O)cc4s3)n1)CCC2", 6.85),
]

Tell me reported pIC50 for C[C@H]1CCN1c1nc2c(c(-c3ccc(C#N)c(Cl)c3)n1)CCC2 , tested with human KHK-A (Homo sapiens (Human), UniProt P50053).
5.70

Tell me reported pIC50 for C[C@@H](O)C(=O)NCc1cccc(-c2nc(N3CC[C@@H]3C)nc3c2CCC3)c1 , tested with human KHK-A (Homo sapiens (Human), UniProt P50053).
6.97

Tell me reported pIC50 for C[C@@H]1CN(c2nc3c(c(-c4ccc(C(N)=O)cc4)n2)CCC3)[C@H]1C , tested with human KHK-A (Homo sapiens (Human), UniProt P50053).
6.83

###

# TESTED ON: human KHK-C (Homo sapiens (Human), UniProt P50053)
# Sequence (P50053 whole entry): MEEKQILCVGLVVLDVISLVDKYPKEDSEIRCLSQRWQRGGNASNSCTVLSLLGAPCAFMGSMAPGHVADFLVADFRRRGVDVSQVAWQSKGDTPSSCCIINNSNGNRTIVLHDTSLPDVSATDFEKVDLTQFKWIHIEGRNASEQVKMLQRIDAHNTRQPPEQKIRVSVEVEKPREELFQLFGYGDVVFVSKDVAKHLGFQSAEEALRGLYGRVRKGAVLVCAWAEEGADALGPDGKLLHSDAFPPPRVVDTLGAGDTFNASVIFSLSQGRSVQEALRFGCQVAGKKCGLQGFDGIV
# ASSAY REMARKS: KHK Biochemical Assay (IC50), ADP-Glo, KHK-C
# RECORDED CONDITIONS: ADP-Glo; average of at least two separate assays
PROPERTY NAME: pIC50
Lab note: report pIC50 as minus log10 of the concentration in molar units, number only.

Examples from the recorded data:
# COMPOUND, pIC50
measured = [
    ("C[C@H]1CCN1c1nc(-c2ccc3c(c2)CCNC3C(F)F)c2c(n1)C(F)(F)CC2 (stereo partly drawn)", 8.24),
    ("C[C@H]1CCN1c1nc2c(c(-c3ccc(C(C)(C)O)cc3)n1)CCC2", 7.06),
    ("C[C@H]1[C@H](O)CN1c1nc(-c2cc(F)c3c(c2)OCC3NS(C)(=O)=O)c2c(n1)C(F)(F)CC2 (stereo partly drawn)", 8.23),
]

Entry under review: C[C@H]1CCN1c1nc2c(c(-c3cncnc3)n1)CCC2 . Reported pIC50?
6.18

Entry under review: C[C@H]1CCN1c1nc(-c2ccccc2)c2occc2n1 . Reported pIC50?
5.58

Entry under review: C[C@H]1CCN1c1nc2c(c(-c3cccc(CN4CCCCC4)c3)n1)CCC2 . Reported pIC50?
7.35

###

# TESTED ON: UniProt P50053
# ASSAY REMARKS: KHK Biochemical Assay (IC50), ADP-Glo, KHK-C
# RECORDED CONDITIONS: average of at least two separate assays
Form field: IC50 (one value per entry).
Quick note: give the figure in nM, leave out the unit.

Examples from the recorded data:
# MOLECULE, REPORTED MEASUREMENT
measured = [
    ("COc1cc(-c2nc(N3C[C@@H](O)[C@@H]3C)nc3c2CCC3(F)F)cc2c1[C@@H](NS(C)(=O)=O)CO2 (single isomer, unassigned) [Example 479]", 0.7),
    ("C[C@H]1[C@H](O)CN1c1nc(-c2ccc3c(c2)OC[C@]32CN(C)C(=O)N2)c2c(n1)C(F)(F)CC2 (single isomer, unassigned)", 20.5),
    ("C[C@H]1[C@H](O)CN1c1nc(-c2cccc([S@@](C)(=N)=O)c2)c2c(n1)C(F)(F)CC2 (single isomer, unassigned)", 9),
    ("NC(=O)c1ccc(-c2nc(N3CCC34CCC4)nc3c2CCC3)cc1", 2120),
    ("C[C@H]1CCN1c1nc2c(c(-c3ccc4c(=O)[nH]c(=O)[nH]c4c3)n1)CCC2", 40.1),
]

Next up:
Tell me reported IC50 for C[C@H]1[C@H](O)CN1c1nc(-c2ccc3c(c2)CCC32CCC(=O)N2)c2c(n1)C(F)(F)CC2 (stereo partly shown) , tested with UniProt P50053.
0.5

###

# TESTED ON: KHK-C expressed in NRK-52E cells (Homo sapiens (Human), UniProt P50053)
# Sequence (P50053 whole entry): as above
# ASSAY REMARKS: KHK-C Cell-based Assay (EC50), NRK CTG, fructose-mediated ATP-depletion
EC50 class ranges: bucket A (below 0.04 µM), bucket B (0.04 µM to below 0.3 µM), bucket C (0.3 µM or more)

Reference set, count: 8
# MOL SMILES, GROUP
records = [
    ("COc1ccc(-c2nc(N3C[C@H](F)[C@@H]3C)nc3c2CCC3(F)F)cc1[S@@](C)(=N)=O", "bucket A"),
    ("C[C@H]1CCN1c1nc2c(c(-c3ccc(C4(N)CC4)cc3)n1)CCC2", "bucket A"),
    ("C[C@H]1CCN1c1nc2c(c(-c3ccc4c(c3)C(=O)NC(=O)C4)n1)CCC2", "bucket C"),
    ("C[C@H]1CCN1c1nc2c(c(-c3ccc(CO)s3)n1)CCC2", "bucket B"),
    ("C[C@H]1CCN1c1nc2c(c(-c3ccc(C45CC(C(=O)O)(C4)C5)cc3)n1)CCC2", "bucket C"),
    ("NC(=O)c1ccc(-c2nc(N3CCn4cncc43)nc3c2CCC3)cc1", "bucket C"),
    ("CN1C(=O)N[C@]2(CCc3cc(-c4nc(N5CC[C@@H]5CF)nc5c4CCC5(F)F)ccc32)C1=O", "bucket A"),
    ("C[C@H]1[C@H](O)CN1c1nc(-c2cnc3c(c2)OCCNC3=O)c2c(n1)C(F)(F)CC2", "bucket C"),
]

Exam item: assign C[C@H]1[C@H](O)CN1c1nc2c(c(-c3ccc4c(=O)[nH]ccc4c3)n1)CCC2 to the correct category.
bucket B

Exam item: assign CCN1C(=O)N[C@]2(CCc3cc(-c4nc(N5C[C@@H](O)[C@@H]5C)nc5c4CCC5(F)F)ccc32)C1=O to the correct category.
bucket A

Exam item: assign C[C@H]1CCN1c1nc2c(c(-c3cccc(NS(=O)(=O)CCC(=O)O)c3)n1)CCC2 to the correct category.
bucket C

Exam item: assign NS(=O)(=O)c1cccc(-c2nc(N3CC[C@@H]3CO)nc3c2CCC3)c1 to the correct category.
bucket C

Exam item: assign C[C@H]1CCN1c1nc2c(c(-c3ccc4c(O)nc(O)cc4c3)n1)CCC2 to the correct category.
bucket C

Exam item: assign C[C@H]1CCN1c1nc2c(c(-c3ccc4c(c3)CN(C)C4=O)n1)CCC2 to the correct category.
bucket B

Exam item: assign C[C@H]1CCN1c1nc2c(c(-c3ccc(CN)s3)n1)CCC2 to the correct category.
bucket B

Exam item: assign C[C@H]1CCN1c1nc2c(c(-c3cc(F)c(C(N)=O)c(F)c3)n1)CCC2 to the correct category.
bucket B

###

Form field: IC50 (one value per entry).
# TESTED ON: human KHK-C (Homo sapiens (Human), UniProt P50053)
# ASSAY REMARKS: KHK Biochemical Assay (IC50), ADP-Glo, KHK-C
# RECORDED CONDITIONS: average of at least two separate assays
Quick note: give the figure in nM, leave out the unit.

# COMPOUND, READOUT UNIT, IC50
measured = [
    ("C[C@H]1[C@H](O)CN1c1nc(-c2ccc(C3(N)COC3)c(C(F)(F)F)c2)c2c(n1)C(F)(F)CC2", "nM", 10.6),
    ("COc1ccc(-c2nc(N3C[C@@H](O)[C@@H]3C)nc3c2CCC3(F)F)cc1S(=N)(=O)C1CC1 (some centres unmarked)", "nM", 2.3),
    ("C[C@H]1CCN1c1nc(-c2ccc3c(c2)[C@H](NS(C)(=O)=O)CC3)c2c(n1)C(F)(F)CC2", "nM", 0.7),
    ("COc1ccc(-c2nc(N3C[C@@H](O)[C@@H]3C)nc3c2CCC3(F)F)cc1S(C)(=N)=O (some centres unmarked)", "nM", 2.7),
    ("C[C@H]1[C@H](F)CN1c1nc(-c2ccc3c(c2)O[C@H](CO)CNC3=O)c2c(n1)C(F)(F)CC2", "nM", 1.8),
]

Entry under review: C[C@H]1[C@H](O)CN1c1nc(-c2ccc3c(c2)CC[C@]32NC(=O)NC2=O)c2c(n1)C(F)(F)CC2 . Reported IC50?
0.2

Entry under review: COC(=O)[C@H]1C[C@@]12C(=O)Nc1ccc(-c3nc(N4CC[C@@H]4C)nc4c3CCC4)cc12 (racemic) . Reported IC50?
229

Entry under review: C[C@H]1[C@H](O)CN1c1nc(-c2ccc3c(c2)C(=O)N(C)CC3)c2c(n1)C(F)(F)CC2 . Reported IC50?
13.6

Entry under review: C[C@H]1[C@@H](F)CN1c1nc(-c2ccc(C3(N)CS(=O)(=O)C3)cc2)c2c(n1)C(F)(F)CC2 . Reported IC50?
0.7

Entry under review: COc1ccc(-c2nc(N3C[C@@H](O)[C@@H]3C)nc3c2CCC3(F)F)cc1[S@@](C)(=N)=O (single isomer, unassigned) . Reported IC50?
1.5

Entry under review: C[C@H]1[C@@H](F)CN1c1nc(-c2ccc3c(c2)COC[C@@H]3NS(C)(=O)=O)c2c(n1)C(F)(F)CC2 . Reported IC50?
1.3

Entry under review: CCS(=N)(=O)c1cccc(-c2nc(N3C[C@@H](O)[C@@H]3C)nc3c2CCC3(F)F)c1 (some centres unmarked) . Reported IC50?
20.9

Entry under review: C[C@H]1[C@H](O)CN1c1nc2c(c(-c3cc4cc[nH]c(=O)c4s3)n1)CCC2 . Reported IC50?
9.3

Entry under review: C[C@H]1CCN1c1nc(-c2cc(F)c3c(c2)OCCNC3=O)c2c(n1)C(F)(F)CC2 . Reported IC50?
6.1
